read-out: CYP2E1 (gene 1571); test: LTEA_HepaRG_CYP2E1: Life Technologies and Expression Analysis (LTEA) Assay for CYP2E1 using HepaRG (AID 2283485); settings: mRNA level, 48 h; actives raise or lower the signal
Active and inactive are the calls of the source. How the source made its calls: active means hit-call score of the fitted dose curve at least 0.9, where 1 is the maximum; inactive means score below 0.9.
Outcome codes: yes for active, no for inactive

                                    molecule  class_assignment
 0            Cc1nc(N(C)C)nc(OC(=O)N(C)C)c1C                no
 1              O=C(O)c1c(Cl)ccc2cc(Cl)cnc12                no
 2              O=c1n(Cl)c(=O)n(Cl)c(=O)n1Cl                no
 3                Nc1cnn(-c2ccccc2)c(=O)c1Cl               yes
 4      COC(=O)NC(=S)Nc1ccccc1NC(=S)NC(=O)OC               yes
 5                   CCOc1nc(C(Cl)(Cl)Cl)ns1                no
 6  C=CCOC(=O)C(C)(C)OC(=O)c1cc(-n2c(=O)cc(C(F)(F)F)n(C)c2=O)ccc1Cl                no
 7  CSC(=O)c1c(C(F)F)nc(C(F)(F)F)c(C(=O)SC)c1CC(C)C               yes
 8             CC(C)N1C(=O)c2ccccc2NS1(=O)=O                no
 9                             O=P(O)(O)CCCl                no
10     O=C(Nc1ccccc1-c1ccc(Cl)cc1)c1cccnc1Cl               yes
11  OC(c1ccc(Cl)cc1)(c1ccc(Cl)cc1)C(Cl)(Cl)Cl               yes
12  CCNP(=S)(OC)O/C(C)=C/C(=O)OC(C)C (stereo not given)               yes
13  Cc1c(COC(=O)[C@@H]2[C@H](/C=C(\Cl)C(F)(F)F)C2(C)C)cccc1-c1ccccc1               yes
14  CCOc1cc(C(C)(C)C)ccc1C1COC(c2c(F)cccc2F)=N1 (stereo not given)               yes

Data origin: PubChem BioAssay (EPA / NIEHS)
